# Test system: MS2 coat protein
# assay-procedure: apparent KD of MS2 coat protein; designed switch direction (-1 OFF switch, 1 ON switch): -1; higher = weaker reporter binding
# measurement-conditions: Eterna round: R95; input ligand: microRNA oligo, concentration not stated
measurement-name: apparent KD of MS2 coat protein (µM)
Record the value in µM, omitting the unit from your answer.

Here is how some sequences turned out for apparent KD of MS2 coat protein.
seq: UUAUCCGCUGAGGAUAUUAUCAGUGAGAGCUGAUGAGAAGGCGGUACAUGAGGAUCACCCAUGUCUAUGGGCAG [Ex-6 Malc#24] (puzzle: Exclusion 6)
measurement-target: MS2 coat protein
uom: µM
recorded-result: 0.337
--
seq: CUUCGACAUGAGGAUCACCCAUGUCAGGAUAUUGUUUAUCUGGUUUUUUACAGAUAUACAAGAAGGGAUGUGUU [LRO-Excl1-02] (puzzle: Exclusion 1)
measurement-target: MS2 coat protein
uom: µM
recorded-result: 0.0259

State the recorded apparent KD of MS2 coat protein for this entry: AGUACUAUGCGAGCUGACUUGCGUAGUGCAGCAGGUGUAACAUGAGGAUCACCCAUGUCCUCAUUUGCUCGUCUUAA [Mat - Sensor v3 - Turn-off var 2 - D9] (puzzle: Sensor v3, turn-off variant 2) 0.288
